Please go through the items and note down their Ki.
The answer is to be given in µM; state only the numeric part.

Lookup: For Stromelysin-1 (Homo sapiens), provide Ki of O=C(NCc1cc2ccccc2o1)[C@H](O)[C@@H](O)C(=O)N1CCCC1c1ccccc1 (some centres not stated) please.
Found: 7.7

Lookup: API: value(readout= Ki, system= Stromelysin-1 (Homo sapiens), query= O=C(NCCc1cccs1)[C@H](O)[C@@H](O)C(=O)N1CCCC1c1cccc(Cl)c1 (some centres not stated) )
Found: 17

====

Would you kindly list pKi for each of these compounds?
- Target Or Test System: Macrophage metalloelastase (Homo sapiens, UniProt P39900)
- Sequence (P39900 whole entry): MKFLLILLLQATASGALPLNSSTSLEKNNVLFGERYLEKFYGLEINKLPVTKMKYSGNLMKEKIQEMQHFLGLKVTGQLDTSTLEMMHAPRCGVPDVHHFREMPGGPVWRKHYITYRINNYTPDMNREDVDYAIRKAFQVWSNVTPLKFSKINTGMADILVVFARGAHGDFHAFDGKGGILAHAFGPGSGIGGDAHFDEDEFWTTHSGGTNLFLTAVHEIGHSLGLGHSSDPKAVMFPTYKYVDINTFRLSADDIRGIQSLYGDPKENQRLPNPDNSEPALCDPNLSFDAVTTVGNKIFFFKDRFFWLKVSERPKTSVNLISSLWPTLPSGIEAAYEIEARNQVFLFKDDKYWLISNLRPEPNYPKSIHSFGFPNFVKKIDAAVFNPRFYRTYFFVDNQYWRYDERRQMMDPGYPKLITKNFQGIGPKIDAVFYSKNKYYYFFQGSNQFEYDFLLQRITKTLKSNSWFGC
The scale used: pKi is minus the common logarithm of the concentration in molar units.

Lookup: State the recorded pKi for this entry: O=C(NCCc1cc(Cc2ccccc2)cs1)[C@H](O)[C@@H](O)C(=O)N1CCCC1c1ccccc1 (stereo partly drawn)
Found: 6.15

Lookup: Which pKi value is on record for `O=C(NCCc1cccs1)[C@H](O)[C@@H](O)C(=O)N1CCN(c2ccccc2Cl)CC1` ?
Found: 5.05

====

- Target Or Test System: Disintegrin and metalloproteinase domain-containing protein 17 (Homo sapiens, UniProt P78536)
- Sequence (P78536 whole entry, the tested form may be a part): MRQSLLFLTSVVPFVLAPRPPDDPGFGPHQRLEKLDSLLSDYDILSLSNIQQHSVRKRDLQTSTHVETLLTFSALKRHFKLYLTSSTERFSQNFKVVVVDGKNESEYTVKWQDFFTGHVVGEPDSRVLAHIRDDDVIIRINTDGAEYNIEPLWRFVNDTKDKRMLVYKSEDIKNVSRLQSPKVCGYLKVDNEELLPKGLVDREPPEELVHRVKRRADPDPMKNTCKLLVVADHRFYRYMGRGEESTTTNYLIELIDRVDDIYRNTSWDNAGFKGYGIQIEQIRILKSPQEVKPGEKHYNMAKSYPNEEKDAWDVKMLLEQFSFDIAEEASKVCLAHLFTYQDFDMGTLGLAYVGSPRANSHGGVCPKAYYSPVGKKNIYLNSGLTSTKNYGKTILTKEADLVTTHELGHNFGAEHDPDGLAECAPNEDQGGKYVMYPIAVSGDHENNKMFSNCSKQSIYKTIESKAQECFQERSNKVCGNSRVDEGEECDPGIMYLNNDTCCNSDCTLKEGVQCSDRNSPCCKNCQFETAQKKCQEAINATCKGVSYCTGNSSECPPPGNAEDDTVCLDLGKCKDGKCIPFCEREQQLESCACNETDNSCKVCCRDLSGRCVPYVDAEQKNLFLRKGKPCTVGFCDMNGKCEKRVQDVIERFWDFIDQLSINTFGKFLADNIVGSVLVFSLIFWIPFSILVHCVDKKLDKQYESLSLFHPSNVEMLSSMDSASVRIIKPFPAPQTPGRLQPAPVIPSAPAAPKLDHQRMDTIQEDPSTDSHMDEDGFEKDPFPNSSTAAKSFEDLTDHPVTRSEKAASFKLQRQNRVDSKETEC
- Assay Details: Inhibition of TACE
- Setup Conditions: read-out: Ki
Measure Name: pKi
Field pKi (float): negative decimal logarithm of the concentration in molar.

Lookup: // lookup pKi for O=C(NCCc1cccs1)[C@H](O)[C@@H](O)C(=O)N1CCC(c2ccccc2)C1 (some centres undefined)
Found: 6.34

Lookup: Name the reported pKi value associated with the compound O=C(NCCc1cc(Cc2ccccc2)cs1)[C@H](O)[C@@H](O)C(=O)N1CCCC1c1ccccc1 (some centres undefined)
Found: 7.18

Lookup: Sample O=C(NCc1ccccc1)[C@H](O)[C@@H](O)C(=O)N1CCCC1c1cccc(Cl)c1 (some centres undefined) — what was its pKi?
Found: 5.84

Lookup: # pKi lookup, item `C[C@H](c1ccccc1)N(C)C(=O)[C@H](O)[C@@H](O)C(=O)NCCc1cccs1`
Found: 6.62

Lookup: // query pKi value for entry O=C(NCc1nc(Cc2ccccc2)cs1)[C@H](O)[C@@H](O)C(=O)N1CCCC1c1ccccc1 (some centres undefined)
Found: 8.10

Lookup: Any idea what its pKi is? The compound is `O=C(NCCc1cccs1)[C@H](O)[C@@H](O)c1nccs1`
Found: 5.26

Lookup: For the compound Cc1cccc(C2CCCN2C(=O)[C@H](O)[C@@H](O)C(=O)N(C)CCc2cccs2)c1 (some centres undefined) , what pKi is on record?
Found: 7.89

Lookup: GET /values?readout=pKi&item= O=C(NCCc1cccs1)[C@H](O)[C@@H](O)C(=O)N1CCCC1c1ccccn1 (some centres undefined)
Found: 6.73

Lookup: What does the record list as pKi for O=C(NCc1cc2ccccc2o1)[C@H](O)[C@@H](O)C(=O)N1CCCC1c1ccccc1 (some centres undefined) ?
Found: 6.80

Lookup: What measured pKi goes with `C[C@@H](c1ccccc1)N(C)C(=O)[C@H](O)[C@@H](O)C(=O)NCCc1cccs1` ?
Found: 6.31

Lookup: # get_value(readout='pKi', item= COc1cccc(C2CCCN2C(=O)[C@H](O)[C@@H](O)C(=O)N(C)CCc2cccs2)c1 (some centres undefined) )
Found: 7.48

Lookup: Requested field: pKi. Item: O=C(NCCc1cccs1)[C@H](O)[C@@H](O)C(=O)N1CCCCC1c1ccccc1 (some centres undefined)
Found: 6.49

Lookup: What does the record list as pKi for O=C(NCCc1nc(Cc2ccccc2)cs1)[C@H](O)[C@@H](O)C(=O)N1CCCC1c1ccccc1 (some centres undefined) ?
Found: 7.32

Lookup: Consider the compound shown here: `O=C(NCCc1cccs1)[C@H](O)[C@@H](O)C(=O)N1CCc2ccccc2C1` What is its recorded pKi?
Found: 7.04

Lookup: Looking for the measured pKi of `COc1cccc(N2CCN(C(=O)[C@H](O)[C@@H](O)C(=O)NCCc3cccs3)CC2)c1` , can you help?
Found: 6.40

Lookup: Quick one: pKi for `CN(CCc1ccccc1)C(=O)[C@H](O)[C@@H](O)C(=O)NCCc1cccs1` ?
Found: 5.89

Lookup: Looking for the measured pKi of O=C(NCc1nc(Cc2ccccc2)co1)[C@H](O)[C@@H](O)C(=O)N1CCCC1c1ccccc1 (some centres undefined) , can you help?
Found: 7.66

Lookup: I'd like to know its pKi. The compound in question is `Cn1ccnc1[C@H](O)[C@@H](O)C(=O)NCCc1cccs1`
Found: 4.97

Lookup: Item under review: O=C(NCc1cc(Cc2ccccc2)cs1)[C@H](O)[C@@H](O)C(=O)N1CCCC1c1ccc(F)cc1 (some centres undefined) . Reported pKi?
Found: 7.03
